Assay: Clearance in male ICR mouse at 1 mg/kg, iv measured upto 36 hrs by LC-MS/MS analysis
Format: ADME, organism-based
Settings: in vivo
assay_readout: clearance (mL/min/kg)
Respond numerically; units are mL/min/kg and should not be typed.

Query: Would you kindly share the measured clearance for Cn1cnc2ccc(-c3nc4ccc(C5CC5)cc4n(-c4ccc(OC(F)F)cc4)c3=O)cc21 ?
Reply: 5.17

###

Assay: Kinetic solubility of compound in phosphate buffer at pH 7.4
Type: physicochemical
Settings: read-out: Kinetic_solubility
assay_readout: solubility kinetic

Query: Please give the measured solubility kinetic for this compound: Cn1cnc2ccc(-c3nc4ccc(C5CC5)cc4n(-c4ccc(OC(F)F)cc4)c3=O)cc21
Reply: 3.11 µM

###

Assay: Plasma protein binding in human assessed as unbound fraction
Type: ADME, cell-free
assay_readout: fraction unbound

Query: Give the measured fraction unbound of Cn1cnc2ccc(-c3nc4ccc(C5CC5)cc4n(-c4ccc(OC(F)F)cc4)c3=O)cc21 .
Reply: 0.003

###

Target: Voltage-gated inwardly rectifying potassium channel KCNH2 (Homo sapiens, UniProt Q12809)
Sequence (Q12809 whole entry): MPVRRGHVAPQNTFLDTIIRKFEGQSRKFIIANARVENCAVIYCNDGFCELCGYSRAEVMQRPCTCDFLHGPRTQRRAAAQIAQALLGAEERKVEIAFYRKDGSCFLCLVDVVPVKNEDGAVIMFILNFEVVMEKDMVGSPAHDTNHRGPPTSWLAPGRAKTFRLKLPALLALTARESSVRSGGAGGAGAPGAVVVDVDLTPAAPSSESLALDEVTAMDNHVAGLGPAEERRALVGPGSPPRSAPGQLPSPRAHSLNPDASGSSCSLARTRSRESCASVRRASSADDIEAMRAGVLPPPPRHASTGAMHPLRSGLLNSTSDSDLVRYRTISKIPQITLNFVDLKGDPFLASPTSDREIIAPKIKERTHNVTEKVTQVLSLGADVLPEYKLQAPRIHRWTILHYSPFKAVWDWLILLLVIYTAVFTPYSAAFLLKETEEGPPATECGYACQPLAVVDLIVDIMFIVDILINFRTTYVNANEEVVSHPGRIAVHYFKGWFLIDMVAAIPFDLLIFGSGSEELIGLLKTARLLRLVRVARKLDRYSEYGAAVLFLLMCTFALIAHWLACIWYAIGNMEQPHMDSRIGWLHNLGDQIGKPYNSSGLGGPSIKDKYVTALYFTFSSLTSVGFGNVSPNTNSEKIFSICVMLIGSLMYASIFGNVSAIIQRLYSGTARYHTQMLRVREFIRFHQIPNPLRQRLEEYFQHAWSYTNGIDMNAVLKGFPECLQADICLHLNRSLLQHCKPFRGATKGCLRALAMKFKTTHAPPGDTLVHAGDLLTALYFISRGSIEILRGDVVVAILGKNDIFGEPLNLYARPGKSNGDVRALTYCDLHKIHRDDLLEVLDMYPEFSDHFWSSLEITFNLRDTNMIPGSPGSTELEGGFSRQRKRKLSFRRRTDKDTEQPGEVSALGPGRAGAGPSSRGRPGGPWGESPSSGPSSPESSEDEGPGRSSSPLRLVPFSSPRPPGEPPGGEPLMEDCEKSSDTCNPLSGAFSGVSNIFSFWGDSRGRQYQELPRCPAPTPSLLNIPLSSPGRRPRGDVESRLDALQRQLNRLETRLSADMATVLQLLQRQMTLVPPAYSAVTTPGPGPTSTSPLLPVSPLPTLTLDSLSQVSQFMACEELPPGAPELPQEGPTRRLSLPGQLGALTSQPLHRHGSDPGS
Assay: Inhibition of hERG expressed in CHO cells incubated for 12 hrs by Qpatch assay
assay_readout: pIC50
Kindly note that pIC50 refers to -log10 of the concentration in mol/L and answer with the value alone.

Query: Lab note: need pIC50 for Cn1cnc2ccc(-c3nc4ccc(C5CC5)cc4n(-c4ccc(OC(F)F)cc4)c3=O)cc21 on Voltage-gated inwardly rectifying potassium channel KCNH2 (Homo sapiens, UniProt Q12809), anyone have it?
Reply: 4.42

###

Target: S-adenosylmethionine synthase isoform type-2 (Homo sapiens)
Sequence (P31153 whole entry, canonical isoform): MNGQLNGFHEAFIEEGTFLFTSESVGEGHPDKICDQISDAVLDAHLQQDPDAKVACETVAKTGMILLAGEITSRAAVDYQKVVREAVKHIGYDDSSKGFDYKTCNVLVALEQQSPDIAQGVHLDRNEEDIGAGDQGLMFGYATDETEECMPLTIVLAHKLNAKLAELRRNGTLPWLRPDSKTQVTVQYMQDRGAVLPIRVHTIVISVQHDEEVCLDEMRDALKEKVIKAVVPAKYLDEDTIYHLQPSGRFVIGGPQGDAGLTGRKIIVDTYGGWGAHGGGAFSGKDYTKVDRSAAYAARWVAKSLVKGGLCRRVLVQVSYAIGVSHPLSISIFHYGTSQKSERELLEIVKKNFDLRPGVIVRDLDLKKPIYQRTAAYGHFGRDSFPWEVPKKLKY
Assay: Inhibition of MAT2A (unknown origin) using L-methionine and ATP as substrate preincubated with compound for 10 mins followed by substrate addition and measured after 60 mins by kinase-glo max reagent based microplate reader analysis
Here, each record is paired with measured pIC50 data.
# pIC50 = -log10(concentration in molar units)

Past entries and their recorded results:
- O=c1c(-c2ccn3nccc3c2)nc2ccc(C3CC3)cc2n1-c1ccc(OC(F)F)cc1: 7.09
- Cn1cnc2ccc(-c3nc4ccc(C5CC5)nc4n(-c4ccc(OC(F)F)cc4)c3=O)cc21: 7.64
- Cn1cnc2ccc(-c3nc4cnc(NC5CC5)nc4n(-c4ccc(OC(F)F)cc4)c3=O)cc21: 7.31
- O=c1c(-c2ccc3nccn3c2)nc2ccc(C3CC3)cc2n1-c1ccc(OC(F)F)cc1: 7.19
- Cn1nnc2ccc(-c3nc4ccc(C5CC5)cc4n(-c4ccc(OC(F)F)cc4)c3=O)cc21: 7.54
- COc1ccc(-c2nc3cnc(NCC(F)(F)F)nc3n(-c3ccc(Br)cc3)c2=O)cc1: 6.82

// moving on: another record for pIC50
Query: Form field: reported pIC50 of O=c1c(-c2ccc3ncoc3c2)nc2ccc(C3CC3)cc2n1-c1ccc(OC(F)F)cc1
Reply: 7.01

###

Test system: B16-F10
Assay: Antiproliferative activity against mouse B16-F10 cells harboring wild type MTAP assessed as inhibition of cell viability measured for 96 hrs by SRB assay
Format: functional, cell-based
Details: B16-F10, 96 h
assay_readout: pIC50
pIC50 here is simply -log10 of the concentration when that concentration is written in mol/L.

• O=c1c(-c2ccn3nccc3c2)nc2ccc(C3CC3)cc2n1-c1ccc(OC(F)F)cc1 = 4.86
• CC(C)n1cnc2ccc(-c3nc4ccc(C5CC5)cc4n(-c4ccc(OC(F)F)cc4)c3=O)cc21 = 5.48
• CC1=Nc2ccc(-c3nc4ccc(C5CC5)cc4n(-c4ccc(OC(F)F)cc4)c3=O)cc2C1(C)C = 5.28

Let us move to another entry and its pIC50.
Query: Request the reported pIC50 associated with O=c1c(-c2ccc3ncn(C4CCCC4)c3c2)nc2cnc(NCC(F)(F)F)nc2n1-c1ccc(OC(F)F)cc1
Reply: 5.01
